assayExplanation: in vitro
runParameters: rat, cerebellum cell culture
Note to self: CC50 at 24 h under 2 µM means true (1), ties and anything higher get false (0).

{"compound": "NCCCCN(CCCCN)[C@@H]1CCc2ccccc21 [Compound 2726, (R)-N,N-di(4-amino-n-butyl)-1-aminoindan]", "categoryLabel": "true (1)"}
{"compound": "NCCCCN(CCCCN)C1CCc2ccccc21 (racemic) [Compound 2711]", "categoryLabel": "false (0)"}
{"compound": "NCCCCN(CCCCN)C1CCCc2ccccc21 (centres unmarked) [Compound 2728]", "categoryLabel": "true (1)"}
{"compound": "N[C@@H]1C[C@H](N)c2ccccc21 [Compound 2715, cis 1,3-diaminoindan]", "categoryLabel": "false (0)"}
{"compound": "NCCCCNC1CCc2ccccc21 (centres unmarked) [Compound 2710]", "categoryLabel": "false (0)"}
{"compound": "NCCCCNCCCNCCCCNC1CCc2ccccc21 (centres unmarked) [Compound 2725]", "categoryLabel": "false (0)"}
{"compound": "NCCCCN(CCCCN)[C@H]1CCc2ccccc21 [Compound 2727, (S)-N,N-di(4-amino-n-butyl)-1-aminoindan]", "categoryLabel": "true (1)"}
{"compound": "NCCCCNCCCNC1CCc2ccccc21 (centres unmarked) [Compound 2720]", "categoryLabel": "true (1)"}
{"compound": "NCCCCN(CCCN)C1CCc2ccccc21 (centres unmarked) [Compound 2722]", "categoryLabel": "false (0)"}
{"compound": "NCCCNC1CCc2ccccc21 (centres unmarked) [Compound 2709, N-(3-aminopropyl)-1-aminoindan]", "categoryLabel": "false (0)"}
{"compound": "NCCCNCCCCNC1CCc2ccccc21 (centres unmarked) [Compound 2724]", "categoryLabel": "false (0)"}
{"compound": "NCCCCN [Putrescine, putrescine, reference compound]", "categoryLabel": "false (0)"}
{"compound": "NCCCNCCCCNCCCNC1CCc2ccccc21 (centres unmarked) [Compound 2721]", "categoryLabel": "true (1)"}
{"compound": "N[C@@H]1C[C@@H](N)c2ccccc21 (relative stereo) [Compound 2716, trans 1,3-diaminoindan]", "categoryLabel": "true (1)"}
{"compound": "N[C@@H]1CCc2ccccc21 [(R)-1-aminoindan, reference compound]", "categoryLabel": "false (0)"}
